# Tested on: NCI-H522 lung
# ASSAY METHOD TEXT: NCI tumour cell line growth inhibition, 48 h
REPORTED ENDPOINT: TGI

Below, each entry is followed by its recorded TGI result.
COMPOUND: Cn1cc(C2=C(c3cn(CCCCO)c4ccccc34)C(=O)NC2=O)c2ccccc21
REPORTED MEASUREMENT: > 25 µM
--
COMPOUND: COC(=O)C(Cc1nc2ccc(Cl)cc2[nH]c1=O)/C(=N\N)C(=O)Nc1cc(C)c(Cl)cc1S(=O)(=O)O (stereo unspecified)
REPORTED MEASUREMENT: > 100 µM
--
COMPOUND: Clc1ccc(C2C3COc4ccccc4C3=NN2c2ccccc2)cc1 (stereo unspecified)
REPORTED MEASUREMENT: > 100 µM
--
COMPOUND: O=Cc1[nH]c(=O)[nH]c(=O)c1C(=O)O
REPORTED MEASUREMENT: > 100 µM
--
COMPOUND: Fc1cc(-c2cc(-c3ccccc3)no2)c(Cl)cc1Cl
REPORTED MEASUREMENT: > 34.5 µM
--
COMPOUND: CC(C)(C)OC(=O)[C@H]1CCC(=S)N1Cc1ccccc1
REPORTED MEASUREMENT: > 100 µM

Give the measured TGI for COc1cc2c(C)cc(O)cc2c2cc(O)c(C)cc12
27.3 µM

Give the measured TGI for CN(C)CC[PH+](c1ccccc1)c1ccccc1.CN(C)CC[PH+](c1ccccc1)c1ccccc1.[Cl-].[Pd+2]
> 100 µM

Give the measured TGI for O=C1OCC2=C1C(c1cccc(Br)c1)c1cc3c(cc1N2CCO)CCC3 (stereo unspecified)
0.521 µM

Give the measured TGI for CN=C(N=Nc1c(O)[nH]c2ccccc12)SCC(=O)c1ccc(Br)cc1
> 56.7 µM

Give the measured TGI for Cc1nn(-c2ccc(Cl)cc2)c2nc3c(nc12)C(=O)c1ccccc1-3
> 100 µM

Give the measured TGI for COc1cc(Cn2c(-c3ccccc3)c(Cl)c3c2-c2oncc2CC3)cc(OC)c1
10.1 µM

Give the measured TGI for Cn1c(=O)n(C2(C)C[Se]C2)c2ccccc21
> 100 µM

Give the measured TGI for CSc1nc(Nc2cccc(C(F)(F)F)c2)c2c(N)nn(C)c2n1
> 100 µM

Give the measured TGI for C1CN2CCN3CCN4CCN1[P+]243
> 100 µM

Give the measured TGI for CC1CCC(=O)C(C(=O)CC2CC(=O)N(C)C(=O)C2)C1 (stereo unspecified)
> 100 µM
